- Target Entity: T1, human Protein S (human, UniProt P07225 42-676)
- T1 sequence: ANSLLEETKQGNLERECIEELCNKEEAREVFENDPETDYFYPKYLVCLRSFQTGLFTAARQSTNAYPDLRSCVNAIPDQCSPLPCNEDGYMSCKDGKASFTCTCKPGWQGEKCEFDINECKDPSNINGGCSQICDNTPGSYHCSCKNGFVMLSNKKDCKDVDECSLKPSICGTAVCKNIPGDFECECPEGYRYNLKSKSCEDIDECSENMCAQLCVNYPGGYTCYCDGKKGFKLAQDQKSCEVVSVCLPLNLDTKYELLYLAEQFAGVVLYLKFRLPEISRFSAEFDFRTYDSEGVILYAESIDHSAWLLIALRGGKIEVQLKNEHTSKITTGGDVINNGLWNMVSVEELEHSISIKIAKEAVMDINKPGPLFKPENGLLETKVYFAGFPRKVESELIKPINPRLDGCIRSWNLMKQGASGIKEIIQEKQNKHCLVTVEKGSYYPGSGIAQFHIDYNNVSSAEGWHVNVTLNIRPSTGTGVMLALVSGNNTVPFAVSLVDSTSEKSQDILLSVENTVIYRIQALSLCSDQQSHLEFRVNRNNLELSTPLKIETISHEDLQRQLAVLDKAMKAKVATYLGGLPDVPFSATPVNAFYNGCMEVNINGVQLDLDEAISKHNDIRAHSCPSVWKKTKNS
- Method Summary: cell-based or functional assay
Recorded Endpoint: IC50 APC (nM)
Respond with the bare value in nM.

// solved cases for IC50 APC follow
| Binder | IC50 APC / nM |
| --- | --- |
| Antibody 14 (antibody, V domains shown, Human variable region with rat Fc) VH: QVQLQESGPGLVKPSQTLSLTCTVSGGSITSDGYHWSWIRQYPGKGLDWIGYIYYTGNTYYNPSLKSRVTISVGTSQNQFSLKLISVTAADTAVYYCARRLSTGPYFDYWGQGTLVTVSS VL: QSALTQPASVSGSPGQSITISCTGTSSDVGGYEFVSWYQHHPGKAPKLMIYDVSSRPSGVSNRFSGSKSGNTASLTISGLQAEDEADYYCSSYTRSSTVVFGGGARLTVL | 8.76 |
| Antibody 16 (antibody, V domains shown, Human variable region with rat Fc) VH: QVQLVESGGGVVQPGRSLRLSCAASGFTFSTYGFHWVRQPPGKGLEWVAVIYYDGINKYYADSVKGRFTISRDNSKNTLFLQMNSLRAEDTAVYYCAESDLDYWGQGTLVTVSS VL: EIVLTQSPATLSLSPGERATLSCRASQSVSIYLAWYQQKPGQAPRLLIYDASNRATGIPARFSGSGSGTDFTLTISSLEPEDFAVYYCQQRSNWPLTFGPGTKVDIK | 14 |

// query Report IC50 APC for Antibody 15 (antibody, V domains shown, Human variable region with rat Fc) VH: EVQLVESGGGLVQPGRSLRLSCAASGFTFDDYAMHWVRQAPGKGLEWVSGITWNSGNIGYADSVKGRFTISRDNAKNSLYLHMNSLRIEDTAFYYCAKGRAVSDTFDIWGQGTMVTVSS VL: SYELNQPPSVSVSPGQTASITCSGDKLGDKYASWYQQKPGQSPVVAIYQNSKRPSGIPERFSASNSGNTATLTISGTQALDEADYYCQAWDSSTWVFGGGTKLTVL please.
// result 13.5

// query Give its IC50 APC value. Item: Antibody 35 (antibody, V domains shown, Human variable region with rat Fc) VH: QLQLQESGPGLVKPSETLSLTCTVSGGSITNSNYYWGWIRQPPGKGLEWIGSVYYSGTTYYNPSLKSRVTISVDPSKNQFSLKLSSVTAADTAVYYCVRESESYYYYGSDVWGQGTTVTVSS VL: DIQMTQSPSSLSASVGDRVTITCRASQGINNYLAWFQQKPGKAPKSLIYAASSLQSGVPSKFSGSGSGTDFTLTISSLQPEDFATYYCQQYNSYPRTFGQGTKVEIK
// result 371

// query Consider the binder Antibody 36 (antibody, V domains shown, Human variable region with rat Fc) VH: EVQLVESGGGLVKPGGSLRLSCAASGFTFSSYNMNWVRQAPGRGLDWVSSISSSSSYIYYADSVKGRFTISRDNAKNSLYLQMNTLRAEDTAVYYCARDEEWELLTGFDYWGQGTLVTVSS VL: DIQMTQSPSSLSASVGDRVTITCRASQGINNYLAWFQQKPGKAPKSLIYAASNLQSGVPLKFSGSGSGTDFTLTISSLQPEDFATYYCQQYNSYPITFGQGTRLEIK and give its measured IC50 APC.
// result 15.3
